Origin of values: patent US11371056B2

tested on: Pseudomonas fluorescens HPPD polypeptide (wild-type and mutants); test: Coupled HPPD activity assay: turnover and residual turnover in crude HPPD polypeptide extracts with and without Cmpd. 1; format: biochemical; conditions: presence of 100 μM Cmpd. 1; changes in absorbance (OD) at 320 nm in the coupled assay, 30 min
MEASUREMENT NAME: Residual turnover
Answer field: number only, no words.

Past entries and their recorded results:
# MOLECULE, Residual turnover
records = [
    ("SEQ ID NO:37 (protein, mutant HPPD polypeptide) MADLYENPMGLMGFEFIEFASPTPGTLEPIFEIMGFTKVATHRSKNVHLYRQGEINLILNNEPNSIASYFAAEHGPSVCGMAFRVKDSQKAYNRALELGAQPIHIDTGPMELNLPAIKGIGGAPLYLIDRFGEGSSIYDIDFVYLEGVERNPVGAGLKVIDHLTHNVYRGRMVYWANFYEKLFNFREARYFDIKGEYTGLTSKAMSAPDGMIRIPLNEESSKGAGQIEEFLMQFNGEGIQHVAFLTDDLVKTWDALKKIGMRFMTAPGDEYYEMLEGRLPDHGEPVDQLQARGILLDGSSVEGDKRLLLQIFSERLMGPVFFEFIQRKGDDGFGPHSFKVLFEQMERDQVRRGVLTAD", 0.045),
    ("SEQ ID NO:25 (protein, mutant HPPD polypeptide) MADLYENPMGLMGFEFIEFASPTPGTLEPIFEIMGFTKVATHRSKNVHLYRQGEINLILNNEPNSIASYFAAEHGPSVCGMAFRVKDSQKAYNRALELGAQPIHIDTGPMELNLPAIKGIGGAPLYLIDRFGEGSSIYDIDFVYLEGVERNPVGAGLKVIDHLTHNVYRGRMVYWANFYEKLFNFREARYFDIKGEYTGLTSKAMSAPDGMIRIPLNEESSKGAGQIEEFLMQFNGEGIQHVAFLTDDLVKTWDALKKIGMRFMTAPGDEYYEMLEGRLPDHGEPVDQLQARGILLDGSSVEGDKRLLLQIFSETLMGPVFFEFIQRKGDDGFGPHSFKVLFESIERDQVRRGVLTAD", 0.112),
]

stdin: Fill blank: measured Residual turnover of the molecule SEQ ID NO:43 (protein, mutant HPPD polypeptide) MADLYENPMGLMGFEFIEFASPTPGTLEPIFEIMGFTKVATHRSKNVHLYRQGEINLILNNEPNSIASYFAAEHGPSVCGMAFRVKDSQKAYNRALELGAQPIHIDTGPMELNLPAIKGIGGAPLYLIDRFGEGSSIYDIDFVYLEGVERNPVGAGLKVIDHLTHNVYRGRMVYWANFYEKLFNFREARYFDIKGEYTGLTSKAMSAPDGMIKIPLNEESSKGAGQIEEFLMQFNGEGIQHVAFLTDDLVKTWDALKKIGMRFMTAPGDEYYEMLEGRLPDHGEPVDQLQARGILLDGSSVEGDKRLLLQIFSEKLMGPVFFEFIQRKGDDGFGPHSFKVLFESMERDQVRRGVLTAD is ____.
stdout: 0.157

stdin: Fill blank: measured Residual turnover of the molecule SEQ ID NO:45 (protein, mutant HPPD polypeptide) MADLYENPMGLMGFEFIEFASPTPGTLEPIFEIMGFTKVATHRSKNVHLYRQGEINLILNNEPNSIASYFAAEHGPSVCGMAFRVKDSQKAYNRALELGAQPIHIDTGPMELNLPAIKGIGGAPLYLIDRFGEGSSIYDIDFVYLEGVERNPVGAGLKVIDHLTHNVYRGRMVYWANFYEKLFNFREARYFDIKGEYTGLTSKAMSAPDGMIKIPLNEESSKGAGQIEEFLMQFNGEGIQHVAFLTDDLVKTWDALKKIGMRFMTAPGDEYYEMLEGRLPDHGEPVDQLQARGILLDGSSVEGDKRLLLQIFSETLMGPVFFEFIQRKGDDGFGPHSFKVLFESMERDQVRRGVLTAD is ____.
stdout: 0.164
